test system: Trypanosoma brucei brucei; assay: Inhibitory activity against Trypanosoma brucei; type: functional, organism-based
pIC50: −log10 of the molar value.
Measured Attribute: pIC50

Smiles Record	pIC50
CNc1nc(NC)nc(NCCCNCCCCCCCCCNCCCNc2nc(NC)nc(NC)n2)n1	5.40
CNc1nc(CN(CCCNCCCCCCCCCNCCCN(Cc2nc(NC)nc(NC)n2)Cc2nc(NC)nc(NC)n2)Cc2nc(NC)nc(NC)n2)nc(NC)n1	7.00
CNc1nc(NC)nc(NCCCNCCCCCCCCCNCCCN)n1	4.08
CN(C)c1nc(N)nc(CN(CCCNCCCCCCCCCCCCNCCCN(Cc2nc(N)nc(N(C)C)n2)Cc2nc(N)nc(N(C)C)n2)Cc2nc(N)nc(N(C)C)n2)n1	5.70

A = CN(C)c1nc(N)nc(CN(CCCNCCCCCCCCCNCCCN(Cc2nc(N)nc(N(C)C)n2)Cc2nc(N)nc(N(C)C)n2)Cc2nc(N)nc(N(C)C)n2)n1
B = CN(C)c1nc(N)nc(NCCCNCCCCCCCCCNCCCNc2nc(N)nc(N(C)C)n2)n1
q: Record comparison, field pIC50: mark the lower of A and B . Pick one and reply with its label.
a: B
(B: 4.40, A: 5.52)
